subjectOfTest: HLA-DQ DQA1*0301/DQB1*0302 (human (endogenous in EBV-transformed cell line Preiss))
testProtocol: radioligand binding
measuredQuantity: IC50

• TPTEKDEYCARVNH [H. sapiens B2-m peptide …] = 29.5 µM
• FDRSTKVIDFHYPNE = 3.96 µM
• RMMEYGTTMVSYQPL = 0.185 µM
• DCLLCAYSIEFGTNISKEHD [Gallus gallus ovomucoid peptide …] = 0.146 µM
